Tested on: SNB-75 CNS
Assay: NCI tumour cell line growth inhibition, 48 h; in the data active means GI50 below about 0.43 µM; inactive means the rest
The reply should name one outcome from y (active), n (inactive)

[
  {
    "COMPOUND": "O=C(Nc1ccc(Cl)cc1)c1cccc(NC2=C(Cl)C(=O)N(Cc3ccccc3)C2=O)c1",
    "STUDY SYSTEM": "SNB-75 CNS",
    "QUALITATIVE LABEL": "n"
  }
]

For this compound, state the assay outcome: `Cn1cnc([N+](=O)[O-])c1S(=O)(=O)Oc1cccc2ccccc12`
n

Thanks! And O=c1c2sccc2n(CC2COc3ccccc3O2)c(=O)n1O (stereo not given) ?
n

// query: `O=C(/C=C/c1ccncc1)c1cc(Cl)ccc1O`
n

And then `[Cl-].[La+3].[O-]/N=C(\c1ccccc1)c1ccccn1.[O-]/N=C(\c1ccccc1)c1ccccn1.[O-]/N=C(\c1ccccc1)c1ccccn1` , what is it?
n

Follow-up entry: `CN(C(=O)c1ccc(C(F)(F)F)cc1)c1ccc(Oc2ccc3c(c2)cc(C(=O)N2CCN(Cc4ccc(OC(F)F)cc4)CC2)n3C)nc1`
n

Queued: `COc1ccc(-c2nnc(COc3ccc(C(=O)/C=C/c4ccco4)cc3)o2)cc1`
n

---

Test system: SK-MEL-28 melanoma
Assay: NCI tumour cell line growth inhibition, 48 h; in the data active = GI50 below about 0.43 µM; inactive = the rest
Respond with a class label; see active, inactive

[
  {
    "CHEMICAL STRUCTURE": "O=C(CCc1nnc2sc(-c3ccc(Cl)cc3Cl)nn12)c1nc2ncccc2[nH]1",
    "QUALITATIVE LABEL": "inactive"
  },
  {
    "CHEMICAL STRUCTURE": "COc1cc(/C=C2\\CN(S(=O)(=O)c3ccccc3)C/C(=C\\c3cc(CN4CCCC4)c(O)c(OC)c3)C2=O)cc(CN2CCCC2)c1O",
    "QUALITATIVE LABEL": "inactive"
  }
]

Name the outcome recorded for `COc1cc2c3c(n(C)c(=O)c2cc1OC)-c1cc2c(cc1/C3=C\CCN)OCO2` in the assay.
inactive

Now the same for `O=C(Nc1ccc(Cl)cc1)c1cccc(NC2=C(Cl)C(=O)N(Cc3ccccc3)C2=O)c1`
inactive

`CC[C@H](Nc1ncnc2nc[nH]c12)c1oc2ccccc2c(=O)c1-c1cccc(F)c1` , same question.
inactive

Now give it for `Cn1cnc([N+](=O)[O-])c1S(=O)(=O)Oc1cccc2ccccc12` too.
inactive

And what about the compound `Cc1cc(I)cc(CN(C)CCCN2CCCCC2)c1O` ?
inactive

---

System: T-47D breast
Test: NCI tumour cell line growth inhibition, 48 h
Item-by-item account of GI50

Sample `COc1ccc(-c2nnc(COc3ccc(NC(=O)Nc4cc(C(F)(F)F)cc(C(F)(F)F)c4)cc3F)o2)cc1` — what was its GI50?
2620 nM

Also need `Cn1cnc([N+](=O)[O-])c1S(=O)(=O)Oc1cccc2ccccc12` , thanks.
1910 nM

Now the same for `Cc1c2c(nn1-c1ccc(S(=O)(=O)/N=C3\SCCC(=O)N3c3ccccc3)cc1)-c1ccccc1CC2`
> 100000 nM

---

Test system: LOX IMVI melanoma
Test: NCI tumour cell line growth inhibition, 48 h
Recorded log10 of TGI, one value per entry.
In our notation, the value equals log10 of TGI in µM.

Quick check: log10 of TGI of `CCN(CC)/C(SCc1ccccc1)=C(\C(Cl)=C(Cl)Cl)[N+](=O)[O-]` ?
1.51

Try `Cc1cc(N(CCOS(C)(=O)=O)CCOS(C)(=O)=O)ccc1C=O` next.
1.77

Same lookup for COc1cccc2c1OC1(C=C2)Oc2ccccc2C(=O)N1C (stereo unspecified) , please.
1.16

Lookup `COc1ccc(-c2nnc(COc3ccc(C(=O)/C=C/c4ccco4)cc3)o2)cc1`
0.50

---

Test system: MOLT-4 leukemia
Assay: NCI tumour cell line growth inhibition, 48 h; in the data active means GI50 below about 0.43 µM; inactive means the rest
Return exactly one item of active, inactive

[
  {
    "COMPOUND": "COc1cc2c3c(n(C)c(=O)c2cc1OC)-c1cc2c(cc1/C3=C\\CCN)OCO2",
    "STUDY SYSTEM": "MOLT-4 leukemia",
    "QUALITATIVE LABEL": "active"
  },
  {
    "COMPOUND": "COc1ccc(-c2nnc(COc3ccc(C(=O)/C=C/c4ccco4)cc3)o2)cc1",
    "STUDY SYSTEM": "MOLT-4 leukemia",
    "QUALITATIVE LABEL": "inactive"
  },
  {
    "COMPOUND": "CC[C@H](Nc1ncnc2nc[nH]c12)c1oc2ccccc2c(=O)c1-c1cccc(F)c1",
    "STUDY SYSTEM": "MOLT-4 leukemia",
    "QUALITATIVE LABEL": "inactive"
  },
  {
    "COMPOUND": "Fc1cc2[nH]ncc2c2c3c(c(-c4cn[nH]c4)nc12)CCCC3",
    "STUDY SYSTEM": "MOLT-4 leukemia",
    "QUALITATIVE LABEL": "inactive"
  },
  {
    "COMPOUND": "C=C1C(=O)O[C@H]2[C@H]1CC/C(COC(=O)c1c[nH]c3ccccc13)=C\\CC[C@@]1(C)O[C@@H]21",
    "STUDY SYSTEM": "MOLT-4 leukemia",
    "QUALITATIVE LABEL": "active"
  }
]

Outcome? `OCCCCCNCc1cc2cc3c(cc2c2cc(OCc4ccccc4)ccc12)OCO3`
inactive

One more compound: `CCN1CCN(c2nc(C)cc(N(CCNc3ccnc4cc(Cl)ccc34)Cc3ccc4c(c3)OCO4)n2)CC1`
inactive

What do you get for C[C@@H]1CCC2[C@@H](C)[C@@H](OCC(CO[C@H]3OC4O[C@@]5(C)CC[C@H]6[C@H](C)CCC([C@H]3C)[C@@]46OO5)OC(=O)CCC(=O)O)OC3O[C@@]4(C)CC[C@@H]1[C@]32OO4 (stereo partly specified) ?
inactive

What about this compound? `Cc1cc(/C=C/c2ccc3cc(N(C)C)ccc3[n+]2C)c(C)n1-c1ccccc1`
active

How about this compound: `CCN(CC)c1ccc(-c2cc(-c3cc(OC)c(OC)c(OC)c3)nc(N3CCOCC3)c2C#N)cc1`
inactive

Now this one: `OCC#Cc1ccccc1C#Cc1ccccc1`
inactive

---

Tested on: NCI-H226 lung
Assay: NCI tumour cell line growth inhibition, 48 h
Reported TGI values are given for each entry in this list.

Recorded TGI for `CCOC(=O)CC(=O)ON(C)C(C)=O` , please?
> 100 µM

---

Tested on: OVCAR-8 ovarian
Test: NCI tumour cell line growth inhibition, 48 h
ENDPOINT NAME: TGI

[
  {
    "CHEMICAL STRUCTURE": "COc1cccc(-c2nc(-c3ccc(NC(=O)C(C)C)cc3)[nH]c2-c2ccnc(Br)c2)c1",
    "TGI": "> 100 µM"
  },
  {
    "CHEMICAL STRUCTURE": "CCOC(=O)CC(=O)ON(C)C(C)=O",
    "TGI": "> 100 µM"
  },
  {
    "CHEMICAL STRUCTURE": "CN(C)c1ccc(C(=N/N=C2\\C(=O)Nc3ccccc32)c2ccc(N(C)C)cc2)cc1",
    "TGI": "22.4 µM"
  },
  {
    "CHEMICAL STRUCTURE": "Cc1cc2c(cc1Cl)SC(N(N(C)C)S(=O)(=O)c1ccc(Cl)cc1)=NS2(=O)=O",
    "TGI": "> 100 µM"
  }
]

Please look at the following molecule next.
Lab note: need TGI for `CCC1(CC)C(=O)NN(C(=O)c2ccccc2)C1=O` on OVCAR-8 ovarian, anyone have it?
> 100 µM

---

Test system: HCC-2998 colon
Assay: NCI tumour cell line growth inhibition, 48 h; in the data active = GI50 below about 0.43 µM; inactive = the rest
Choose one outcome from this list and give only that: TRUE (active), FALSE (inactive)

[
  {
    "CHEMICAL STRUCTURE": "Cc1cc(/C=C/c2ccc3cc(N(C)C)ccc3[n+]2C)c(C)n1-c1ccccc1",
    "QUALITATIVE LABEL": "TRUE"
  },
  {
    "CHEMICAL STRUCTURE": "CN(C(=O)c1ccc(C(F)(F)F)cc1)c1ccc(Oc2ccc3c(c2)cc(C(=O)N2CCN(Cc4ccc(OC(F)F)cc4)CC2)n3C)nc1",
    "QUALITATIVE LABEL": "FALSE"
  },
  {
    "CHEMICAL STRUCTURE": "CCCCCCCC(=O)SCC/C=C/[C@@H]1CC(=O)NCc2cc(ccn2)C2=N[C@@](C)(CS2)C(=O)N[C@@H](C(C)C)C(=O)O1",
    "QUALITATIVE LABEL": "TRUE"
  },
  {
    "CHEMICAL STRUCTURE": "O=C(/C=C/c1ccc(Cl)cc1)c1ccc(Nc2ccnc3cc(Cl)ccc23)cc1",
    "QUALITATIVE LABEL": "FALSE"
  }
]

Record lookup: outcome of this test for `Cc1c2c(nn1-c1ccc(S(=O)(=O)/N=C3\SCCC(=O)N3c3ccccc3)cc1)-c1ccccc1CC2` ?
FALSE

Origin of values: PubChem BioAssay (NCI)
